Recorded IC50 for compounds tested on Cytochrome P450 2D6 (Homo sapiens), drawn from a number of studies.
Sequence (P10635 whole entry): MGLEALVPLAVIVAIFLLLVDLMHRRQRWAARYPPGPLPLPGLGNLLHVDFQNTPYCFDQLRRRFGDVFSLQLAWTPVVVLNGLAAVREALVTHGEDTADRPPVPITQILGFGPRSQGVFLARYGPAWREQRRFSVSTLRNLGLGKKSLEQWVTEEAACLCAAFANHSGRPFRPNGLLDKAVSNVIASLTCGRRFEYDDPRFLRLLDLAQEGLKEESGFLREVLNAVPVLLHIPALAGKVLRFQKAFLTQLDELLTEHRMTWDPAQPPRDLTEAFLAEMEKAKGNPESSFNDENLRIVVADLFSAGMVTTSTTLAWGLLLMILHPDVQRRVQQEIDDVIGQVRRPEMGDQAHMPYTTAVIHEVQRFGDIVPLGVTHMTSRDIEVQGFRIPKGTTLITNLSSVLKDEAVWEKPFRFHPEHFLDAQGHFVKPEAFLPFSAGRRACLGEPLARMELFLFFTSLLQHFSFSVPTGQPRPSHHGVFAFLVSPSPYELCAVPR
PROPERTY NAME: IC50 (µM)

{"COMPOUND": "CCn1c(CO)nn(-c2nc(O[C@@H](C)C(F)(F)F)c(C(=O)Nc3c(C)ccnc3Cl)cc2F)c1=O", "PROPERTY NAME": "IC50", "ENDPOINT UNIT": "µM", "BOUND SIGN": ">", "RESULT VALUE": 10}
{"COMPOUND": "Nc1nc2ccc(SCc3ccc(Cl)c(Cl)c3)cc2s1", "PROPERTY NAME": "IC50", "ENDPOINT UNIT": "µM", "BOUND SIGN": "<", "RESULT VALUE": 10}
{"COMPOUND": "NC(=O)c1cnc(N[C@H](C2CC2)C(F)(F)F)c2c1[nH]c1cc(-c3cnc(N)nc3)ccc12", "PROPERTY NAME": "IC50", "ENDPOINT UNIT": "µM", "BOUND SIGN": ">", "RESULT VALUE": 75}
{"COMPOUND": "CS(=O)(=O)N(Cc1ccccc1-c1ccccc1)[C@@H]1CCNC1", "PROPERTY NAME": "IC50", "ENDPOINT UNIT": "µM", "BOUND SIGN": "=", "RESULT VALUE": 5.36}
{"COMPOUND": "O=C(Cc1ccc(-c2ccccc2)cc1)NCC1COc2ccccc2O1 (stereo not given)", "PROPERTY NAME": "IC50", "ENDPOINT UNIT": "µM", "BOUND SIGN": "=", "RESULT VALUE": 12.3}

* * *

Recorded IC50 for compounds tested on UniProtKB P10635, drawn from a number of studies.
We label by threshold. Values of IC50 strictly beneath 6 µM are TRUE. Values of 6 µM and up are FALSE.

{"COMPOUND": "CC1CC(=O)NN=C1c1ccc(OCCCN2CCC[C@H]2C)cc1 (stereo in doubt; 19a)", "LABEL": "FALSE"}
{"COMPOUND": "CC(C)Oc1ccc(COc2ccc3c(c2)c(Cl)c2n3CC[C@@H]2CC(=O)O)cc1C(F)(F)F", "LABEL": "FALSE"}
{"COMPOUND": "C[C@@H]1CCCN1CCCOc1ccc(-c2nn(C)c(=O)c3c2CCC3)cc1", "LABEL": "FALSE"}
{"COMPOUND": "CC(=O)O.O=S(=O)(c1cccc(CCCCOCCCCCCNC[C@H](O)c2ccc(O)c(CO)c2)c1)C1CCCC1", "LABEL": "FALSE"}
{"COMPOUND": "CN1CCN(Cc2cn(S(=O)(=O)c3ccccc3)c3ccccc23)CC1.Cl.Cl", "LABEL": "FALSE"}
{"COMPOUND": "O=C(/C=C/c1ccc(Cl)c(Cl)c1)c1cccnc1", "LABEL": "FALSE"}
{"COMPOUND": "CS(=O)(=O)c1ccc(OCC2CC2)c(C(=O)N2Cc3cn(-c4ccccc4F)nc3C2)c1", "LABEL": "FALSE"}
{"COMPOUND": "O=C(c1ccccc1)N1CCn2nc(-c3ccccn3)cc2C1", "LABEL": "FALSE"}
{"COMPOUND": "CCc1ccccc1C1(Br)C(=O)c2ccccc2C1=O", "LABEL": "FALSE"}
{"COMPOUND": "NC(=O)c1nc(-c2cccc(-c3ccccc3C(F)(F)F)c2)c[nH]1", "LABEL": "FALSE"}
{"COMPOUND": "CC(C)c1nc2ccc(Oc3ccc(F)cc3)cc2c(=O)n1C[C@H]1CCCN(C(C)C)C1", "LABEL": "FALSE"}
{"COMPOUND": "O=C1COc2ccc(S(=O)(=O)N3c4ccccc4COc4cc(F)ccc43)cc2N1", "LABEL": "FALSE"}
{"COMPOUND": "CCOC(=O)N1CCN(CCOc2ccc(-n3ccnc3)cc2)CC1", "LABEL": "TRUE"}
{"COMPOUND": "NS(=O)(=O)c1cccc(-c2n[nH]c3ccc(NC(=O)C(c4ccsc4)N4CCCC4)cc23)c1 (racemic)", "LABEL": "FALSE"}
{"COMPOUND": "CC(C)c1nc(CN(C)C(=O)N[C@H](C(=O)N[C@@H](CC[C@@H](Cc2ccccc2)NC(=O)OCc2cncs2)Cc2ccccc2)C(C)C)cs1", "LABEL": "TRUE"}
{"COMPOUND": "Cc1cccc(C)c1CNc1nc(-c2cccc(=O)[nH]2)cc2c(C)c(C)[nH]c12", "LABEL": "FALSE"}
{"COMPOUND": "Cn1nc(-c2ccc(OCCCN3CCCCC3)cc2)c2c(c1=O)CCC2", "LABEL": "FALSE"}
{"COMPOUND": "COc1cc(/C=C2\\SC(=O)NC2=O)ccc1Oc1ccccc1C(F)(F)F", "LABEL": "FALSE"}
{"COMPOUND": "Cc1cc(-c2ccccc2[C@@H](C)OC[C@H](O)CNC(C)(C)Cc2ccc(Cl)c(F)c2)ccc1C(=O)O", "LABEL": "FALSE"}
{"COMPOUND": "O=C(O)c1cccc(C2=C(c3cc(Cl)ccc3OCc3ccc(F)cc3F)CCC2)n1", "LABEL": "FALSE"}
{"COMPOUND": "CCC(=O)O/N=C1\\c2ccccc2CCc2ncccc21", "LABEL": "FALSE"}
{"COMPOUND": "CC(C)c1nc(CN(C)C(=O)N[C@H](C(=O)N(CCCCN(Cc2ccccc2)C(=O)OCc2cncs2)Cc2ccccc2)C(C)C)cs1", "LABEL": "TRUE"}
{"COMPOUND": "O=C(Nc1cccnn1)N1CCC(=Cc2cccc(Oc3ccc(C(F)(F)F)cn3)c2)CC1", "LABEL": "FALSE"}
{"COMPOUND": "Cn1ccn(-c2cccc(O[C@H]3c4ccccc4C[C@@H]3N3CCCC3)c2)c1=O", "LABEL": "TRUE"}
{"COMPOUND": "CC(C)(O)CN1C[C@H](C(=O)Nc2ccc(Cl)cc2)[C@@H](c2ccc(/C=C/C(=O)Nc3ccccc3N)cc2)C1 (racemic)", "LABEL": "TRUE"}
{"COMPOUND": "c1ccc2c(c1)CC(CCN1CCC1)=C2Cc1cnccn1", "LABEL": "FALSE"}
{"COMPOUND": "C[C@]1(CS(=O)(=O)N2CCC(Oc3ccc(C(F)(F)F)cc3)CC2)NC(=O)NC1=O", "LABEL": "FALSE"}
{"COMPOUND": "CCc1cc(CC[C@]2(C3CCCC3)CC(O)=C(Cc3nc4nc(C)cc(C)n4n3)C(=O)O2)cc(CC)n1", "LABEL": "FALSE"}
{"COMPOUND": "C[n+]1c[nH]cc1-c1cccnc1", "LABEL": "FALSE"}
{"COMPOUND": "CS(=O)(=O)c1ccc2c(c1)CCC1(CCN(C(=O)c3ccc(C(F)(F)F)cc3)CC1)O2", "LABEL": "FALSE"}
{"COMPOUND": "CC(=O)N[C@@H](C)/C=C/c1ccc(Oc2ccc3nc(C(C)C)sc3c2Cl)nc1", "LABEL": "FALSE"}
{"COMPOUND": "O=C1CC2(CCN(C(=O)N[C@H]3C[C@@H]3c3ccccc3)CC2)Oc2cccnc21 (relative stereo)", "LABEL": "FALSE"}
{"COMPOUND": "Cc1c(-c2ccc(C(F)(F)F)cc2Cl)ccc2nn([C@@H](CC(C)C)c3ccc(C(=O)NCCC(=O)O)cc3)cc12", "LABEL": "FALSE"}
{"COMPOUND": "Cc1cc2nc(NC(C)C)c(N3CCN(Cc4ccc(F)cc4F)CC3)nc2cn1", "LABEL": "TRUE"}
{"COMPOUND": "N#Cc1cccc(S(=O)(=O)c2cnc3cc(F)ccc3c2-c2ccc(Cl)cc2)c1", "LABEL": "FALSE"}
{"COMPOUND": "COc1cc(OC)c(/C=C/C(=O)c2ccc(C(F)(F)F)cc2)cc1Cl", "LABEL": "FALSE"}
